Target: BRD4 (Homo sapiens, UniProt O60885)
Test: Time Resolved Fluorescence Resonance Energy Transfer (TR-FRET) binding assay, BRD4
Conditions: one of the FRET assays described; read-out: FRET BRD4 IC50
Observed Property: IC50

1) Cc1noc(C)c1-c1cnc2c3ccc(C(C)(C)O)cc3n([C@H](CCC(F)(F)F)c3ccccc3Cl)c2c1 = < 1500 nM
2) [2H]C([2H])([2H])c1nnn(C)c1-c1cnc2c3c(NCC(C)(C)N)ccc(S(C)(=O)=O)c3n([C@H](c3ccccc3)C3CCOCC3)c2c1 = < 5 nM

Record summary for Cc1noc(C)c1-c1cnc2c3ccc(C(C)(C)O)cc3n(C(c3cccc(F)c3F)C3CCOCC3)c2c1 (single isomer, unassigned) [Example 146] : reported IC50 = < 5 nM

GET /value?item= "COc1cc(C(C)(C)O)cc2c1c1ncc(-c3c(C)nnn3C)cc1n2[C@H](c1ccccc1)C1CCOCC1" &field=IC50 returns < 5 nM

---

Biological target: BRD4 (Homo sapiens)
Experiment: Time Resolved Fluorescence Resonance Energy Transfer (TR-FRET) binding assay, BRD4
Conditions: one of the FRET assays described; read-out: FRET BRD4 IC50
Here the recorded IC50 is given for each entry.

# annotated cases, reported IC50 shown
1. Cc1nnn(C)c1-c1cnc2c3ccc(C(C)(C)O)cc3n(C(c3c(F)cccc3F)C3CCOCC3)c2c1 (single isomer, unassigned) [Example 133] = < 5 nM
2. Cc1nnn(C)c1-c1cnc2c3ccc(C(C)(C)O)cc3n(C(c3cc(F)cc(F)c3)C3CCOCC3)c2c1 (single isomer, unassigned) [Example 99] = < 5 nM

Memo: [2H]C([2H])([2H])c1nnn(C)c1-c1cnc2c3ccc(C(C)(C)O)c(F)c3n(C(c3ccc(F)cn3)C3CCOCC3)c2c1 (single isomer, unassigned) [Example 323] , reported IC50: < 25 nM

---

Biological target: BRD4 (Homo sapiens, UniProt O60885)
Assay: Time Resolved Fluorescence Resonance Energy Transfer (TR-FRET) binding assay, BRD4
Conditions: one of the FRET assays described; read-out: FRET BRD4 IC50
pIC50: −log10 of the molar value.
Observed Property: pIC50

Record summary for "[2H][C@@](c1ccccc1)(C1CCOCC1)n1c2cc(C(C)(C)O)ccc2c2ncc(-c3c(C)nnn3C)cc21" : reported pIC50 = > 8.30

Field pIC50 (entry "Cc1noc(C)c1-c1cnc2c3ccc(C(C)(C)O)cc3n([C@@H](c3ccccc3)C3CCC3)c2c1" ) reads > 7.60

Form field pIC50, entry [2H]C([2H])([2H])c1nnn(C)c1-c1cnc2c3ccc(C(C)(C)O)c(F)c3n(C(c3ncccc3F)C3CCOCC3)c2c1 (single isomer, unassigned) : > 8.30

For "Cc1nnn(C)c1-c1cnc2c3ccc(C(C)(C)O)cc3n([C@H](CCC(F)(F)F)c3ccccc3)c2c1" the compound record lists pIC50 as > 8.30

Record Cc1noc(C)c1-c1cnc2c3ccc(C(C)(C)O)cc3n(C(c3ccc(F)cc3F)C3CCOCC3)c2c1 (single isomer, unassigned) [Example 125] , field pIC50: > 8.30

Per the records, this compound ( "[2H]C([2H])([2H])c1nnn(C)c1-c1cnc2c3c(OC)ccc(S(C)(=O)=O)c3n([C@H](c3ccccc3)C3CCOCC3)c2c1" ) has pIC50 equal to > 8.30

Entry "Cc1nnn(C)c1-c1cnc2c3c(S(C)(=O)=O)cccc3n([C@H](c3ccccc3F)C3CCOCC3)c2c1" , pIC50 reported as > 8.30
